test_method_notes: yeast display, Sf9 membrane polyspecificity reagent, FACS + sequencing; frameworks hold sequencing errors
readout: polyreactivity (PSR sort gate)

Some solved entries appear below for comparison.
QVQLEESGGGLVQAGGSLRFSFAASGSIFRYYAMGWYRQAPGKERELVANISRGCSTYYADSVKGRFTISRDNAKKTVYLQMNSLKPDDTAVYYCAADISERYDYWGQGTQVTVSS :: high polyreactivity
QVQLVESGGGLVQAGGSLRLSCAASGSTFVYYTMGWYRPAPGKERELVAAITSGTSTNYADSVKGRFTISRDNAKNTVYLQMNSLKPEDTAVYDCNAQRRGTYYWGQGTQVTVSS :: high polyreactivity
QVQLVESGGGLVQAGGSLRLSCAASGRTFKYYALGWYRQAPGKERELVAAISTRGGRTYADSVKGRFTISRDNAKNTVYLQMNSLKPEDTAVYYCARDSNVGHHGFDYWGQGTQVTVSS :: low polyreactivity
QVQLVESGGGLVQAGGSLRISCAASGSTFGRNAMGWYSQAPGKERELVAAISSGGSTSYADSVKGRFTISRDNAKYTVYLQMNSLKPEDTAVYYCAAHSVGSQYDYWGQGTQVTVSS :: low polyreactivity
QVQLVESGGGLVQAGGGLRLSCAASGSILPEYAMGWYRQAPGKERELVAAITTSGGSTYYADSVKGRFTISRDNAKNTVYLQMNSLKPEDTAVYYCAVEYLVYLDYTYDYWGQGTQVTVSS :: low polyreactivity
QVQLVESGGGLVQAGGSLRLSCAASGSTFGVNAMVWYRQAPGKERELVAGISVDDSTTYYADSVKGRFTISRDNAKNTVYLQMNSLKPEDTAVYYCAAEREKTLYYLSRFDYWGQGTQVTVSS :: low polyreactivity

# lookup: polyreactivity (PSR sort gate) of QVQLVESGGGLVQAGGSLRLSCAASGSTFLNYALGWYRQAPGKERELVASISYSAGSTYYADSVKGRFTISRDNAKNTVYLQMNSLKPEDTAVYYCAARLARAGYWRRNYYYWGQGTQVTVSS
high polyreactivity

If you can, please state the reported polyreactivity (PSR sort gate) value of QVQLVESGAGLVQAGRSLRLSCAASGRTLSRFAMGGYRQAPGKERELVAGITSGGDTRTYYADSVKGRFTISRDYAKNTVYLQMNSLKPEDPAVYYCWGQVTQVTVSS .
low polyreactivity

Item QVQLVESGGALVQAGGSLRLSCAASGLIFTAYAMGWYRQAPGKERELVAAIDWRGGSTSYADSVKGRFTISRDTAKNTVYLQMNSLKPEDTAVYYCAADYYSKYVRFGYWGQGTQVTVSS has what recorded polyreactivity (PSR sort gate)?
high polyreactivity
